# Tested on: SEM cells
# ASSAY INFO: cell viability relative to DMSO control; higher = less cytotoxic
# ASSAY CONDITIONS: RPMI 5 mM glucose + 10% dialyzed FBS; 48 h; 46.1 µM
READOUT LABEL: cell viability (%)

1. FC(F)(F)C1=CC=C2C(SCCCCCO\C3=C\O\C(CN4CCOCC4)=C/C3=O)=CC=NC2=C1 | 85.7
2. O=C(NCCO[N+](=O)[O-])c1cccnc1 | 110
3. NC/1=N/C(=O)N(C[C@@H](CO)OC[P](O)(O)=O)/C=C1 | 100
4. COc1cc(Nc2ncc(F)c(Nc3ccc4c(n3)N(COP(=O)(O)O)C(=O)C(C)(C)O4)n2)cc(OC)c1OC | 24.6
5. NC(=O)c1ccc(-c2nc(-c3ccc4c(c3)OCO4)c(-c3ccccn3)[nH]2)cc1 | 102
6. CCC(=O)OC1CCC2C3CCC/4=C/C(=O)CC[C@@]4(C)C3CC[C@]12C (stereo not given in full) | 127
7. O=[S+]([O-])(/N=C/c1c(O)ccc2ccccc12)c1cccs1 | 98.7
8. C=CCc1cc(OC)c(O)c(C(=O)NCCO)c1 | 66.8
9. COc1ccc(C(=O)CC(=O)c2ccc(C(C)(C)C)cc2)cc1 | 115
10. COC/1=C/[C@@H]2[C@@H]3CC4=C(C(=C(OC)C=C4)O)[C@]2(CCN3C)CC1=O | 125
11. C=CC(=O)Nc1cccc(Oc2nc(Nc3ccc(N4CCN(C)CC4)cc3OC)ncc2Cl)c1 | 18
12. C[C@@H](NCc1cc2ccccc2[nH]1)c1cccc2ccccc12 | 57.9
13. O=C(O)[C@@H](c1ccc(OCc2ccc3ccccc3n2)cc1)C1CCCC1 | 83.1
14. CN[C@H]1[C@H](O[C@@H]2[C@H](O[C@@H]3[C@@H](O)[C@@H](O)[C@@H](NC(=N)N)[C@@H](O)[C@H]3NC(=N)N)O[C@H](C)[C@@]2(O)C=O)O[C@@H](CO)[C@@H](O)[C@H]1O | 101
15. Nc1nc(Nc2ccc([S+](N)(=O)[O-])cc2)nn1C(=O)c1c(F)cccc1F | 4.33

---

# Tested on: P12-Ichikawa
# ASSAY INFO: AUC of viability dose-response curve (% viability x log10 dose units); higher = less sensitive
# ASSAY CONDITIONS: HPLM + 10% dialyzed FBS; 48 h
AUC of viability dose-response curve values, listed per item
READOUT LABEL: AUC of viability dose-response curve

1. COC1=CC(=CC=C1)C2=CC=C(NC(=O)/C3=C(/CCC3)C(O)=O)C(=C2)F | 444
2. CNC(=O)c1cc(Oc2ccc(NC(=O)Nc3ccc(Cl)c(C(F)(F)F)c3)cc2)ccn1 | 457
3. O=C1c2c(O)cc(O)cc2O[C@H](c2cc(O)c(O)c(O)c2)[C@H]1O | 456
4. CN1\N=N/C2=C(N=C[N]2C1=O)C(N)=O | 466
5. O=C(Nc1ccc([N+](=O)[O-])cc1Cl)c1cc(Cl)ccc1O | 386
6. C[C@@H](NCc1cc2ccccc2[nH]1)c1cccc2ccccc12 | 441
7. CC(=O)C1=C(O)C2(C)C(=CC1=O)Oc1c(C(C)=O)c(O)c(C)c(O)c12 (configuration not stated) | 347
8. CCCOc1ccc2[nH]c(NC(=O)OC)nc2c1 | 226
9. CN(CCOc1ccc(NS(C)(=O)=O)cc1)CCc1ccc(NS(C)(=O)=O)cc1 | 469
10. CC[C@H](NC(C)C)[C@H](O)c1ccc(O)c2[nH]c(=O)ccc12 | 451
11. C=C[C@H]1CN2CCC1C[C@@H]2[C@@H](O)c1ccnc2ccccc12 (some centres not stated) | 443
12. CN[C@H]1[C@H](O[C@@H]2[C@H](O[C@@H]3[C@@H](O)[C@@H](O)[C@@H](NC(=N)N)[C@@H](O)[C@H]3NC(=N)N)O[C@H](C)[C@@]2(O)C=O)O[C@@H](CO)[C@@H](O)[C@H]1O | 452
13. COc1cc(NC(=O)c2ccc(-c3ccc(Cl)cc3)o2)cc(OC)c1 | 471
14. COc1ccc(CC2c3cc(OC)c(OC)cc3CC[N+]2(C)CCC(=O)OCCCCCOC(=O)CC[N+]2(C)CCc3cc(OC)c(OC)cc3C2Cc2ccc(OC)c(OC)c2)cc1OC (configuration not stated) | 439
15. O=C(NCCO[N+](=O)[O-])c1cccnc1 | 471
16. COC(=O)Nc1ccc(-c2nc(N3CCOCC3)c3cnn(C4CCN(Cc5cccnc5)CC4)c3n2)cc1 | 355
17. O=[S+]([O-])(O)c1ccc2cc(/N=N/c3cc([S+](=O)([O-])O)c4cccnc4c3O)ccc2c1 | 462

---

# Tested on: SEM cells
# ASSAY INFO: cell viability relative to DMSO control; higher = less cytotoxic
# ASSAY CONDITIONS: RPMI 5 mM glucose + 10% FBS; 48 h; 0.569 µM
Response field label: string, one of criterion met (cell viability strictly below 90%) or criterion not met.

1. Cc1cccc(N(C)C(=S)Oc2ccc3ccccc3c2)c1 | criterion not met
2. CC(=O)C1=C(O)C2(C)C(=CC1=O)Oc1c(C(C)=O)c(O)c(C)c(O)c12 (stereo unspecified) | criterion not met
3. CN1/C=C(\N=C(NC2=CC=C(C=C2)C(=O)N3CCOCC3)/C1=O)/C4=C(C)C(=CC=C4)NC(=O)C5=CC=C(C=C5)C(C)(C)C | criterion not met
4. CC(C[N+](C)(C)C)OC(N)=O (stereo unspecified) | criterion not met
5. CCCc1nc2c(C)cc(-c3nc4ccccc4n3C)cc2n1Cc1ccc(-c2ccccc2C(=O)O)cc1 | criterion not met
6. C[C@@H](NCc1cc2ccccc2[nH]1)c1cccc2ccccc12 | criterion not met
7. O=C(Nc1ccc([N+](=O)[O-])cc1Cl)c1cc(Cl)ccc1O | criterion not met
8. CN1\N=N/C2=C(N=C[N]2C1=O)C(N)=O | criterion met
9. COc1ccccc1OCCNCC(O)COc1cccc2[nH]c3ccccc3c12 (stereo unspecified) | criterion not met
10. O=C(c1ccc(/C=C/c2n[nH]c3ccccc23)cc1)N1CCNCC1 | criterion met
11. O=[N+]([O-])c1ccc(Nc2ccccc2-c2ccccc2)c2nonc12 | criterion met
12. CCOc1cc(/C=C2/C(=O)N(c3ccccc3)N=C2C)cc(Cl)c1OCC(=O)OC | criterion not met
13. NC1CCC(Nc2nc(Nc3ccc(C(=O)N4CCCCC4)cc3)c3ncn(-c4cccc(F)c4)c3n2)CC1 (stereo unspecified) | criterion met
14. O=C(NCCCNc1nc(Nc2cccc(NC(=O)N3CCCC3)c2)ncc1I)c1cccs1 | criterion met
15. CC(=O)OCC(=O)[C@@]12OC(C)(C)O[C@@H]1C[C@H]3[C@@H]4C[C@H](F)C/5=C/C(=O)/C=C\[C@]5(C)[C@@]4(F)[C@@H](O)C[C@]23C | criterion met
16. NC/1=N/C(=O)N(C[C@@H](CO)OC[P](O)(O)=O)/C=C1 | criterion not met
17. CO[C@H]1/C=C/O[C@@]2(C)Oc3c(C)c(O)c4c(O)c(c(/C=N/N5CCN(C)CC5)c(O)c4c3C2=O)NC(=O)/C(C)=C\C=C\[C@H](C)[C@H](O)[C@@H](C)[C@@H](O)[C@@H](C)[C@H](OC(C)=O)[C@@H]1C | criterion met
18. CN1C2=CC(=O)/C(=N/NC(N)=O)C=C2CC1S(=O)(=O)[O-].[Na+] (stereo unspecified) | criterion not met
19. CNC(=O)c1ccc(N2C(=S)N(c3ccc(C#N)c(C(F)(F)F)c3)C(=O)C2(C)C)cc1F | criterion met
20. Cn1cnc(-c2cc3nccc(Oc4ccc(NC(=S)NC(=O)Cc5ccccc5)cc4F)c3s2)c1 | criterion met

---

# Test system: NOMO1
# ASSAY INFO: cell viability relative to DMSO control; higher = less cytotoxic
# ASSAY CONDITIONS: HPLM + 10% dialyzed FBS; 48 h; 0.0632 µM
cell viability values, listed per item
READOUT LABEL: cell viability (%)

1. N#CC1(c2ccc(NC(=O)c3cccnc3NCc3ccncc3)cc2)CCCC1 | 114
2. CN[C@H]1[C@H](O[C@@H]2[C@H](O[C@@H]3[C@@H](O)[C@@H](O)[C@@H](NC(=N)N)[C@@H](O)[C@H]3NC(=N)N)O[C@H](C)[C@@]2(O)C=O)O[C@@H](CO)[C@@H](O)[C@H]1O | 130
3. O=C(O)CSCC(=O)NC1CCSC1=O (centres undefined) | 118
4. CN(c1nccc(=O)[nH]1)C1CCN(c2nc3ccccc3n2Cc2ccc(F)cc2)CC1 | 128
5. Cn1c(=O)c2[nH]cnc2n(C)c1=O | 92.5
6. COC(=O)Nc1ccc(-c2nc(N3CCOCC3)c3cnn(C4CCN(Cc5cccnc5)CC4)c3n2)cc1 | 88.6
7. CCCCOc1ccc(CC(=O)NO)cc1 | 101
8. COc1cc(Nc2ncc(F)c(Nc3ccc4c(n3)N(COP(=O)(O)O)C(=O)C(C)(C)O4)n2)cc(OC)c1OC | 122
9. C=CC(=O)Nc1cccc(Oc2nc(Nc3ccc(N4CCN(C)CC4)cc3OC)ncc2Cl)c1 | 81.9
10. C[C@H](NC(=O)Cc1cc(F)cc(F)c1)C(=O)N[C@@H]1C(=O)N(C)c2ccccc2-c2ccccc21 | 121
11. O=C(Nc1ccc([N+](=O)[O-])cc1Cl)c1cc(Cl)ccc1O | 98.7
12. COc1cccc2c(NCc3ccccc3)nc(-n3c(N)nc4ccccc43)nc12 | 129
13. O=C(O)c1ccc(-c2c[nH]c3ncc(-c4ccccc4)cc23)cc1C1CCCC1 | 134
14. O=C(c1ccc(/C=C/c2n[nH]c3ccccc23)cc1)N1CCNCC1 | 97.9

These entries and their values trace back to the supplement of paper PMC11451515.
